Target: UniProt:Q6ZN17
Experiment: Fluorescence polarization (FP) assay, Lin28b ZKD:pre-let-7d interaction
Type: binding
Details: FP / EMSA

[
  {
    "molecule": "O=c1cccc(Nc2ncc(O)cc2O)[nH]1 [Ln298]",
    "target": "UniProt:Q6ZN17",
    "activity in protein-based assays": "active"
  },
  {
    "molecule": "O=c1cccc(Nc2ccncc2O)[nH]1 [Ln300]",
    "target": "UniProt:Q6ZN17",
    "activity in protein-based assays": "active"
  },
  {
    "molecule": "O=c1cccc(Nc2ccccc2O)[nH]1 [Ln296]",
    "target": "UniProt:Q6ZN17",
    "activity in protein-based assays": "inactive"
  },
  {
    "molecule": "Cc1cc(-c2nc(=O)c3cc(O)c(F)cc3[nH]2)[nH]c(=O)c1 [Ln275]",
    "target": "UniProt:Q6ZN17",
    "activity in protein-based assays": "inactive"
  },
  {
    "molecule": "Cn1cnc2c(=O)[nH]c(-c3nc(=O)c4cc(O)c(F)cc4[nH]3)cc21 [Ln279]",
    "target": "UniProt:Q6ZN17",
    "activity in protein-based assays": "active"
  },
  {
    "molecule": "Cc1cc(O)cc2c(=O)nc(-c3nccc(=O)[nH]3)[nH]c12 [Ln282]",
    "target": "UniProt:Q6ZN17",
    "activity in protein-based assays": "inactive"
  },
  {
    "molecule": "CN(C)c1ccc(=O)[nH]c1-c1nc(=O)c2cc(O)c(F)cc2[nH]1 [Ln277]",
    "target": "UniProt:Q6ZN17",
    "activity in protein-based assays": "inactive"
  },
  {
    "molecule": "O=c1cccc(Nc2ccc(O)cc2O)[nH]1 [Ln295]",
    "target": "UniProt:Q6ZN17",
    "activity in protein-based assays": "inactive"
  }
]

* * *

Biological target: Lin28b ZKD (Homo sapiens, UniProt Q6ZN17)
Sequence (Q6ZN17 127-166 limits assumed): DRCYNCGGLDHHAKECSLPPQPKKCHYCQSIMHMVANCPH
Experiment: Fluorescence polarization (FP) assay, Lin28b ZKD:pre-let-7d interaction
Format: binding
Conditions: 10 nM pre-let-7d probe, 1 μM Lin28b ZKD

[
  {
    "compound": "Cc1c(O)cnc(Nc2cccc(=O)[nH]2)c1O [Ln302]",
    "measurement_unit": "µM",
    "IC50": 3.63
  },
  {
    "compound": "O=c1cccc(-c2nc(=O)c3cc(O)c(F)cc3[nH]2)[nH]1 [Ln115]",
    "measurement_unit": "µM",
    "IC50": 21
  },
  {
    "compound": "CC(C)c1cc(Nc2csc(=O)[nH]2)c(O)cc1O [Ln267]",
    "measurement_unit": "µM",
    "IC50": 4.67
  },
  {
    "compound": "O=c1[nH]c(Nc2ccccc2O)cs1 [Ln15]",
    "measurement_unit": "µM",
    "IC50": 9
  }
]
